src = PubChem BioAssay (NCI)

Tested on: RPMI-8226 leukemia
protocol: NCI-60 one-dose screen, 48 h (100 = growth as untreated, 0 = no growth, -100 = all killed)
condition-set: 10 µM unless noted
Description: Growth inhibition of the RPMI-8226 human tumor cell line is measured as a screen for anti-cancer activity. Cells are grown in 96 well plates and exposed to the test compound for 48 hours. Compounds are tested at a single concentration, which is 10^-5 M for most compounds. The reported endpoint is percent growth (GI% or GIPRCNT), where numbers from 0 - 100% represent growth inhibition, and numbers from -100% - 0 represent cell death. For example, a value of 40 represents 60% growth inhibition. […]
The panel holds about 83,000 compounds, 20% with a hit somewhere; the sample as a whole holds those more often.
endpoint: growth (%)
Give the value in % but do not write % after it.

These recorded examples may help you get a feel for the data.
Cc1[nH]c(C(=O)Nc2nc3ccc(NC(=O)CCN)cc3s2)c(Cl)c1Cl | 78.4
CC(=O)N1N=C(c2ccc(Nc3nc(Nc4ccc(F)cc4)nc(Nc4ccc(F)cc4)n3)cc2)CC1c1ccccc1 (stereo not given) | 33.9
Cc1nn(-c2nc(-c3cc4ccccc4oc3=O)cs2)c(C)c1N=Nc1ccccc1 | 101
C/C=C(\C)C(=O)N[C@H]1CC[C@]2(C)C3CC[C@@]4(C)C(CC[C@@H]4C(C)N(C)C)C3CCC2[C@H]1OC(C)=O (stereo not given in full) | -15.3
Cc1ccc(/C=C/c2c(C(=O)/C=C/c3ccccc3)c(C)nc3ccccc23)cc1 | -7.87

Query block: Report measured growth; entry is CCN1C(=O)/C(=c2\sc3n(c2=O)C2C(NN=3)N(CC)C(=O)N2CC)c2ccccc21 (stereo not given)
Result block: 50.8

Query block: Report measured growth; entry is `Cn1cc2c(=O)nc3c(-c4nc5ccccc5[nH]4)n[nH]n3c2n1`
Result block: 50.6

Query block: Report measured growth; entry is COc1nc(=O)n(C2C=CC(=O)O2)cc1F (stereo not given)
Result block: 70.1

Query block: Report measured growth; entry is `C[C@]12CCc3c(ccc4cc(O)ccc34)[C@@H]1C[C@H](O)[C@@H]2O`
Result block: 97.1

Query block: Report measured growth; entry is `c1ccc(-c2cc(-c3cc(-c4ccccc4)on3)no2)cc1`
Result block: 88.1

* * *

growth for assorted compounds
Test system: BT-549 breast
protocol: NCI-60 one-dose screen, 48 h (100 = growth as untreated, 0 = no growth, -100 = all killed)
condition-set: 10 µM unless noted
This is part of a sample that, as a whole, favours compounds with a hit. Of some 83,000 tested, about 20% had one in any assay.
Give the value in % but do not write % after it.

These recorded examples may help you get a feel for the data.
COc1ccc(Oc2nc(Nc3ccc(N4CCOCC4)cc3)ncc2NC(=O)c2cccc(C(F)(F)F)c2)cc1 | 96.9
COCCn1cc(-c2nc(-c3cn(CCOC)c4ncccc34)cs2)c2ccccc21 | 77.7
O=C1CCCCN1CCCCC#Cc1cccc(C#Cc2cccnc2)c1 | 265
COc1ccc(C/C(C)=C(/c2ccc(OCCN3CCCCCC3)cc2)c2ccc(OC(=O)c3ccccc3)cc2)cc1 | 106

Query block: Given `COc1ccc(S(=O)(=O)Nc2cc(Sc3cccc4cccnc34)c(O)c3ccccc23)cc1` , report its growth on BT-549 breast.
Result block: 27.7

Query block: Given `Nc1ccc(-c2nc3ccc4[nH]ncc4c3c3c2CCCC3)cc1F` , report its growth on BT-549 breast.
Result block: 10

Query block: Given `CCN(CC)/C([O-])=c1\cccc\c1=C1\N=C(c2ccccc2)N=C1[n+]1ccc(-c2ccccc2)cc1` , report its growth on BT-549 breast.
Result block: 93.3

Query block: Given `Cc1ccc(Nc2nc(-c3cc(O)c(C)c(C)c3O)cs2)cc1` , report its growth on BT-549 breast.
Result block: 98.1

Query block: Given `O=C(NNc1ccccc1)c1ncc[nH]1` , report its growth on BT-549 breast.
Result block: 101

Query block: Given `Cc1[nH]c(C(=O)Nc2nc3ccc(NC(=O)CCN)cc3s2)c(Cl)c1Cl` , report its growth on BT-549 breast.
Result block: 88.9
